# study.system: Tyrosine-protein kinase CSK (Homo sapiens) (UniProt P41240)
# Sequence (P41240 2-450 limits assumed): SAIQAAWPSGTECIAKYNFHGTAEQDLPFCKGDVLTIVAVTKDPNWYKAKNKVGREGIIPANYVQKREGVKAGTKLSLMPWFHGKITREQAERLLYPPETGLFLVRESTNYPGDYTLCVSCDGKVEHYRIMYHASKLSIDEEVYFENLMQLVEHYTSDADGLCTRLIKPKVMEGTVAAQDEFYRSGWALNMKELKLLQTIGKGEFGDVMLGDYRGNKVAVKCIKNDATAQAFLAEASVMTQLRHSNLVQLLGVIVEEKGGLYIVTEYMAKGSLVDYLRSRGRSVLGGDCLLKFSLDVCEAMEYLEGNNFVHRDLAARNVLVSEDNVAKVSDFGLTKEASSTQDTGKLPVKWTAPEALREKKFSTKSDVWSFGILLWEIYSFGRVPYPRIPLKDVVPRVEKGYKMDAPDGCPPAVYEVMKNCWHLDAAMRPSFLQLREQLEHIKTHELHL
# experimental.setup: at 10 µM
readout: residual activity (%)

>>> recorded_measurement("COc1ccc(OC)c2c(=S)c3ccccc3[nH]c12")
105
>>> recorded_measurement("O=C1NC(=O)/C(=C/c2ccc3c(c2)OC(F)(F)O3)S1")
117
>>> recorded_measurement("COc1ccc(S(=O)(=O)N(CCO)c2ccccc2CN(C)C/C=C/c2ccc(Cl)cc2)cc1")
84
>>> recorded_measurement("Cn1nc2c3c(cccc31)C(=O)c1ccccc1-2")
90
>>> recorded_measurement("COc1cc2ncnc(Nc3ccc(Oc4ccccc4)cc3)c2cc1OC")
3
>>> recorded_measurement("CC[n+]1c(/C=C/N(C)c2ccccc2)n(-c2ccccc2)c2ccc(-c3nc4ccccc4s3)cc21")
95
>>> recorded_measurement("Nc1ccc2ncnc(NCCc3ccc(Oc4ccccc4)cc3)c2c1")
91
>>> recorded_measurement("O=C(Nc1cccc(Nc2nccc(Nc3cccc(C(F)(F)F)c3)n2)c1)C1CC1")
100
>>> recorded_measurement("N#C/C(=C(\\N)Sc1ccc(N)cc1)c1ccccc1C(F)(F)F")
87
>>> recorded_measurement("O=c1c2ccccc2[nH]c(=S)n1CCN1CCC(=C(c2ccc(F)cc2)c2ccc(F)cc2)CC1")
98
>>> recorded_measurement("CCN(CC)CCCCN1c2ccccc2Oc2ccc(Cl)cc21")
102
>>> recorded_measurement("Ic1cccc(CSc2nnc(-c3ccncc3)o2)c1")
94
>>> recorded_measurement("O=C(O)c1ccc2c3c1cccc3c(=O)n1c3ccccc3nc21")
88
>>> recorded_measurement("CO[C@@H]1[C@H](N(C)C(=O)c2ccccc2)C[C@H]2O[C@]1(C)n1c3ccccc3c3c4c(c5c6ccccc6n2c5c31)C(=O)NC4")
78
>>> recorded_measurement("Nc1cccc(-c2cc3c(Oc4cccc(O)c4)ncnc3[nH]2)c1")
21
>>> recorded_measurement("Cc1ccc(S(=O)(=O)/C=C/C#N)cc1")
105
>>> recorded_measurement("CN(C)c1ccc(/C=C2\\C(=O)Nc3ccccc32)cc1")
119
>>> recorded_measurement("N#Cc1cnc2cnc(NCc3cccnc3)cc2c1Nc1ccc(F)c(Cl)c1")
75

----------
# study.system: Protein kinase C delta type (Homo sapiens) (UniProt Q05655)
# Sequence (Q05655 whole entry, looked up): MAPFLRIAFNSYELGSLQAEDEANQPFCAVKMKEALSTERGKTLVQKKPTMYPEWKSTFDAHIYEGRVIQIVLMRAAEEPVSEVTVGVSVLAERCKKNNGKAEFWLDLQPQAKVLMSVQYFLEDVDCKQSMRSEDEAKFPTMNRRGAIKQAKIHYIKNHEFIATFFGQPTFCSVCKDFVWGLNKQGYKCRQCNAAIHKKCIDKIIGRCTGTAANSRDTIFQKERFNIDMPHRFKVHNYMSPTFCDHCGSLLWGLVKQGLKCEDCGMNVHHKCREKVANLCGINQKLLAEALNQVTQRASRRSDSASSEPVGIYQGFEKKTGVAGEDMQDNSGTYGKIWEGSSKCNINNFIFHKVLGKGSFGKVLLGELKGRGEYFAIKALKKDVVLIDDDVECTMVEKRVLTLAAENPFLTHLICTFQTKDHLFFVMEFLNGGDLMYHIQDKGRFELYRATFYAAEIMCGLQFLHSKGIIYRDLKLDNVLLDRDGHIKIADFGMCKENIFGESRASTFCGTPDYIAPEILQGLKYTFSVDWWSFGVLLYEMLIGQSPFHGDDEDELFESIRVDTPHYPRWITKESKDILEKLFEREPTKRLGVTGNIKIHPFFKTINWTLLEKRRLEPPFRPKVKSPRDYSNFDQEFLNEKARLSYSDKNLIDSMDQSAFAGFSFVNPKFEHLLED
# experimental.setup: at 1 µM
readout: residual activity (%)

>>> recorded_measurement("CC[n+]1c(/C=C/N(C)c2ccccc2)n(-c2ccccc2)c2ccc(-c3nc4ccccc4s3)cc21")
100
>>> recorded_measurement("COc1ccc(CNc2nc(N(CCO)CCO)nc3c2ncn3C(C)C)cc1")
60
>>> recorded_measurement("c1ccc2c(-c3ccncc3)c[nH]c2c1")
63
>>> recorded_measurement("Nc1ccc2ncnc(NCCc3ccc(Oc4ccccc4)cc3)c2c1")
106
>>> recorded_measurement("Oc1ccc(-c2nc(-c3ccc(F)cc3)c(-c3ccncc3)[nH]2)cc1")
98
>>> recorded_measurement("CC(=O)O/N=C1\\C(=C2\\C(=O)Nc3cc(Br)ccc32)Nc2ccccc21")
98
>>> recorded_measurement("Oc1c2ccccc2c2c3c(cccc13)N=N2")
99
>>> recorded_measurement("CCC(=O)Nc1ccc2ncnc(Nc3cccc(Br)c3)c2c1")
101
>>> recorded_measurement("CC#CC(=O)Nc1cc2c(Nc3ccc(F)c(Cl)c3)ncnc2cn1")
94
>>> recorded_measurement("COc1cc2ncnc(Nc3ccc(O)c(Br)c3)c2cc1OC")
100
>>> recorded_measurement("Cc1nc2cc3nc(-c4cccs4)cnc3cc2n1C")
98
>>> recorded_measurement("Cc1ccc(NC2=CC(=O)c3sc(C)nc3C2=O)cc1")
103
